Consider the following compounds and their measured Ki readings.
- experimentNotes: Binding potency against Platelet activating factor (PAF) receptor using [3H]C18-PAF as radioligand on rabbit platelet membranes
Give the number; nM is assumed, so skip it.

>>> df
                               smilesstring  assayresult
0  COC(=O)c1cc(C#Cc2ccccc2)cc2c1c(C(=O)c1ccc(Cn3c(C)nc4cnccc43)cc1)cn2C(=O)N(C)C         0.95
1  Cc1nc2cnccc2n1CN1CCN(S(=O)(=O)c2cn(C(=O)N(C)C)c3cc(-c4ccc(F)cc4)ccc23)CC1          1.2

Query block: Could you share which Ki value was measured for COC(=O)c1cccc2c1c(C(=O)c1ccc(Cn3c(C)nc4cnccc43)cc1)cn2C(C)C ?
Result block: 1.3

Query block: Could you share which Ki value was measured for CCOCCn1cc(C(=O)c2ccc(Cn3c(C)nc4cnccc43)cc2)c2c(C(=O)OC)cccc21 ?
Result block: 1.1

Query block: Could you share which Ki value was measured for COC(=O)c1cccc2c1c(C(=O)Cc1ccc(-n3c(C)nc4cnccc43)cc1)cn2C(=O)N(C)C ?
Result block: 0.63

Query block: Could you share which Ki value was measured for CCOCCn1cc(C(=O)CN2CCC(n3c(C)nc4cnccc43)CC2)c2c(Cl)cccc21 ?
Result block: 15
